Recorded Anti-CD28 Fab signal in the presence of CD28 values for a group of binders are listed next.
Target: T1, Anti-CD28 Fab (SEQ ID NOs: 696, 697)
T1 construct: In the phage ELISA the Fab was biotinylated and captured on neutravidin coated plates
T1 sequence (VH, as listed by the source, chain 1 of 2): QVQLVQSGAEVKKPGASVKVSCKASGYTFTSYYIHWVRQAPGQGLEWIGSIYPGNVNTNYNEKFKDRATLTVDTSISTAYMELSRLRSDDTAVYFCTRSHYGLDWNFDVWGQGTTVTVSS
T1 sequence (VL, as listed by the source, chain 2 of 2): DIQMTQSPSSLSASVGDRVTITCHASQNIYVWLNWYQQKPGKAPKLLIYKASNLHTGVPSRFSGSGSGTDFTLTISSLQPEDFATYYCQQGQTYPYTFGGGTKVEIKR
Experiment: phage binding ELISA on captured anti-CD28 Fab; wells pre-incubated with CD28 antigen as competitor
measure: Anti-CD28 Fab signal in the presence of CD28

binder: TCSAGAHYPWPICL (Clonal phage of the Peptide-92 library, tested as crude supernatant; not shown: fused to the pIII filament of the bacteriophage) [Phage-1347]
measurement: 0.07
//
binder: LCSAGAMWPWPTCL (Clonal phage of the Peptide-92 library, tested as crude supernatant; not shown: fused to the pIII filament of the bacteriophage) [Phage-1355]
measurement: 0.08
//
binder: TCAAGAHYPWPACL (Clonal phage of the Peptide-92 library, tested as crude supernatant; not shown: fused to the pIII filament of the bacteriophage) [Phage-1351]
measurement: 0.07
//
binder: TCAAGATYLWPTCL (Clonal phage of the Peptide-92 library, tested as crude supernatant; not shown: fused to the pIII filament of the bacteriophage) [Phage-1350]
measurement: 0.06
//
binder: TCAAGAMWAWPVCL (Clonal phage of the Peptide-92 library, tested as crude supernatant; not shown: fused to the pIII filament of the bacteriophage) [Phage-1358]
measurement: 0.09
//
binder: TCSAGATYEWPRCL (Clonal phage of the Peptide-92 library, tested as crude supernatant; not shown: fused to the pIII filament of the bacteriophage) [Phage-1346]
measurement: 0.06
//
binder: SCSAGAHYPWPQCF (Clonal phage of the Peptide-92 library, tested as crude supernatant; not shown: fused to the pIII filament of the bacteriophage) [Phage-1345]
measurement: 0.06
//
binder: LCSAGAMYSWPTCL (Clonal phage of the Peptide-92 library, tested as crude supernatant; not shown: fused to the pIII filament of the bacteriophage) [Phage-1356]
measurement: 0.12
